Catalogue of melting point readings, one per entry.

Example molecules with recorded melting point:
O=C1COc2cc(NC(=O)C(=O)N3CCC(Oc4ccccc4)CC3)ccc2N1	196 to 199 °C
O=C(O)CCCOc1ccccc1OCc1ccccc1	75 to 76 °C
CCCc1c2nc(C(=O)OCC)cc(NC)c2cc2c(=O)cc(C(=O)OCC)oc12	235 to 237 °C
COc1cc(-c2cc3ccccc3[nH]2)ccc1OS(C)(=O)=O	194 °C
O=c1c2cc(Cl)ccc2nc2n1CCCC2=Cc1ccccc1	121 to 123 °C
CCOC(=O)NNc1cc(C)c(-c2ccc(C#N)cc2)nn1	189 to 191 °C

Which melting point value is on record for COC(=O)C(C)(C)c1ccc(C(=O)Nc2cn3cc(C)ccc3n2)cc1 ?
228 to 230 °C

Which melting point value is on record for COC1C=C(c2ccc(C#N)cc2)C(OC)O1 (stereo not given) ?
71 to 72 °C

Which melting point value is on record for CCOC(=O)CCCOc1ccc2c(c1)CN1CC(=O)NC1=N2 ?
243 to 244 °C

Which melting point value is on record for C=C=C(C)C1Oc2cccc(OC)c2-c2ccc3c(c21)C(C)=CC(C)(C)N3 (stereo not given) ?
59 to 63 °C

###

Catalogue of melting point readings, one per entry.

Example compounds with recorded melting point:
O=C(NC1CCN(CCCc2ccccc2)C1)C12CC3CC(CC(C3)C1)C2 (stereo not given)	118 to 120 °C
COc1ccc(-c2nc3cccnc3n2CC(=O)O)cc1	260 to 263 °C
COc1ccc(C(CC(=O)NCc2ccccc2)N2C(=O)c3ccccc3C2=O)cc1OC (stereo not given)	208 to 210 °C
Cn1ccc(NC(=S)S)n1	79 to 82 °C
CC(C(=O)N(C)C)n1cc(I)c(-c2ccccc2)n1 (stereo not given)	108 to 111 °C

Which melting point value is on record for COCCCOc1ccc(-c2nc(C(=O)Nc3nccs3)c(-c3ccc(Cl)cc3)[nH]2)cc1 ?
173 to 177 °C

Which melting point value is on record for CCOc1c(OC)cc(C)c(C(=O)c2c(OC)ccc(Cl)c2C)c1OC ?
131 to 132 °C

Which melting point value is on record for Cc1cccc(NC(=O)c2cc(C#N)cc(C)n2)c1 ?
160 °C

Which melting point value is on record for C#CC1(OC(C)=O)CCC2C3CCC4=CC(=O)C=CC4(C)C3CCC21C (stereo not given) ?
172 to 173 °C

Which melting point value is on record for NC1CCN(c2ccc([N+](=O)[O-])cn2)CC1 ?
115 to 117 °C

###

Catalogue of melting point readings, one per entry.

Example compounds with recorded melting point:
ON=c1cc(-c2cnccn2)ss1	262 °C
COC(=O)C(C#N)c1ncc(Cl)cc1Cl (configuration not stated)	109 to 110 °C
COc1cc(NCCCCCCN2CCN(CCCO)CC2)c2nccc(C)c2c1	100 to 102 °C

Which melting point value is on record for COc1ccccc1C=CC(=O)CC(=O)C=Cc1ccccc1OC ?
121 to 123 °C

Which melting point value is on record for Cc1nn(-c2ccc(C(=N)N)cc2)c(=O)n1-c1ccc(CCC(=O)O)cc1 ?
303 to 305 °C

Which melting point value is on record for CCSc1ncnc2c(N3CCCCC3)nc(Cl)nc12 ?
110 to 111 °C

Which melting point value is on record for O=C1OC[C@@H](c2ccccc2)N[C@H]1Cc1ccccc1 ?
75 to 76 °C

Which melting point value is on record for CCCCCCCCCCCCOC(=O)Cc1nc(-c2ccc(Cl)cc2)oc1-c1ccco1 ?
69.5 to 71 °C

Which melting point value is on record for CCOC(=O)C1=C(C)NC(C)=C(C(=O)OCC(F)(F)F)C1c1cccc([N+](=O)[O-])c1 (configuration not stated) ?
192 °C

Which melting point value is on record for CSC(c1ccc(Cl)cc1)c1ccc(Cl)cc1 ?
56 to 57 °C

Which melting point value is on record for COc1nc2cccc(C=O)c2nc1OC ?
137 to 140 °C

Which melting point value is on record for O=C1NCCc2[nH]c3ccccc3c21 ?
212 to 215 °C

Which melting point value is on record for CC1SC(=O)NN=C1c1ccc2c(c1)C1(CCCS1)C(=O)N2 (configuration not stated) ?
205 °C

Which melting point value is on record for CC(/C=C/CN1CCc2cc3c(cc21)C(C)(C)CCC3(C)C)=C\C(=O)O ?
170 to 171 °C

Which melting point value is on record for CN1CCC2(CC1)OC(=O)c1ccccc12 ?
147 to 148 °C

Which melting point value is on record for COC(=O)c1c(OCc2ccccc2)ccc2c1CC[C@@H](N)[C@@H]2O (relative stereo) ?
124 to 126 °C
